Where do the numbers come from? From patent US10214492B2.

experiment: Pharmacokinetic assay in mouse (IV 3 mg/kg, PO 10 mg/kg); assay type: in vivo; details: Male CD1 mouse, oral bioavailability, PO 10 mg/kg
Assay Metric: Mouse F (%)

Here is how some compounds turned out for Mouse F.
Compound: CC(C)(OCc1cc(-c2cccc(OC3CC3)c2)n(-c2ccccc2Cl)n1)C(=O)O [Example 110]
Endpoint Unit: %
Endpoint Result: 100
--
Compound: CCn1ncc2ccc(-c3cc(COC(C)(C)C(=O)O)nn3-c3ccccc3N3CCC3)cc21 [Example 228]
Endpoint Unit: %
Endpoint Result: 100
--
Compound: CC(C)COc1cccc(-c2cc(COC(C)(C)C(=O)O)nn2-c2cccc3cnn(C)c23)c1 [Example 170]
Endpoint Unit: %
Endpoint Result: 100

1 = CCOc1ccccc1Cn1nc(COC(C)(C)C(=O)O)cc1-c1cc(OC)cc(OC)c1 [Example 211]
2 = CC[C@@](C)(OCc1cc(-c2cccc(OC3CC3)c2)n(-c2ccccc2N2CCC2)n1)C(=O)O [Example 266]
3 = Cn1ncc2cccc(-n3nc(COC(C)(C)C(=O)O)cc3-c3cccc(OCC(C)(C)C)c3)c21 [Example 167]
Task item: Put these in order: smallest Mouse F first, largest last. State the ranking by listing the labels in the requested order.
Reply: 3, 1, 2

---

target: MCT4 (Homo sapiens (Human)); test: Assay 3: MCT4-mediated lactate transport in MDA-MB-231 breast cancer cells; assay type: cell-based; settings: MDA-MB-231 cells; lactate transport
Assay Metric: IC50 (nM)

Here is how some compounds turned out for IC50.
Sample Smiles: CC(C)(OCc1cc(-c2cccc(OC3CC3)c2)n(-c2ccc(F)cc2N2CCC2)n1)C(=O)O
IC50 [nM]: 1.3
--
Sample Smiles: Cn1ncc2cccc(-n3nc(COC(C)(C)C(=O)O)cc3-c3cccc(OC4CC4)c3)c21
IC50 [nM]: 17
--
Sample Smiles: COc1cc(OC)cc(-c2cc(COC(C)(C)C(=O)O)nn2Cc2ccccn2)c1
IC50 [nM]: 285
--
Sample Smiles: CC(C)(OCc1cc(-c2ccccn2)n(-c2ccccc2Cl)n1)C(=O)O
IC50 [nM]: 1400
--
Sample Smiles: COc1cccc(-c2cc(CO[C@@H](C)C(=O)O)nn2Cc2ccccc2Cl)c1
IC50 [nM]: 420

1 = CC(C)(OCc1cc(-c2cccc(OC3CCC3)c2)n(-c2ccccc2N2CCC2)n1)C(=O)O
2 = Cc1ccccc1-n1nc(COC(C)(C)C(=O)O)cc1-c1cccc(OC2CCC2)c1
3 = CC(C)(OCc1cc(-c2ccc(OC3CC3)s2)n(Cc2ccccc2Cl)n1)C(=O)O
Task item: Output the entries ranked by IC50 from maximum down to minimum. State the ranking by listing the labels in the requested order.
Reply: 3, 2, 1
(3: 225 nM, 2: 3.3 nM, 1: 0.83 nM)

---

Target: MCT4 (Homo sapiens (Human), UniProt O15427)
Sequence (O15427 whole entry, looked up): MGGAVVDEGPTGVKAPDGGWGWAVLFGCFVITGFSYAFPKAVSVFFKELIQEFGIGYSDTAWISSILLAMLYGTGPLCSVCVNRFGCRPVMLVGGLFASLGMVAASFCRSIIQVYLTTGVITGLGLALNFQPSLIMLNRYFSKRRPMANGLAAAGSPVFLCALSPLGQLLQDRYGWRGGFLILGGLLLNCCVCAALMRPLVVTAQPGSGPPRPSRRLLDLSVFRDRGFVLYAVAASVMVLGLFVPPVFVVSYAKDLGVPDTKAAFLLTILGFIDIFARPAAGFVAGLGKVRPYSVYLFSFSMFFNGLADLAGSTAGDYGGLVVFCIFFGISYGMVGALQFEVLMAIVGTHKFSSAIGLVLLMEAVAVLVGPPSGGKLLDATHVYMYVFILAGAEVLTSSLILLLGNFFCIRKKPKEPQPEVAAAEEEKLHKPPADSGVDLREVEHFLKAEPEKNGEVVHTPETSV
Sequence (P35613 whole entry partner, looked up): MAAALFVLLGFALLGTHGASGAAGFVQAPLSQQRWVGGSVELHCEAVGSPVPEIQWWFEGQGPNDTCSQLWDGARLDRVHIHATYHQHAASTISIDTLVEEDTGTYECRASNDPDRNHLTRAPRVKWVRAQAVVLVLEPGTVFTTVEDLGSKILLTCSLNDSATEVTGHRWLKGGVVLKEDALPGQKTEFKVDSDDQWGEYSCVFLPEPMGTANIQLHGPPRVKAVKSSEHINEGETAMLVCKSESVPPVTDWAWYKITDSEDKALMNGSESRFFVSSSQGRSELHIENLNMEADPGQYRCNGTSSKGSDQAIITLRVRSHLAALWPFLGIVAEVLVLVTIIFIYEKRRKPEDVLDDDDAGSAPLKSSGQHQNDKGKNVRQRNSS
Experiment: Assay 3: MCT4-mediated lactate transport in MDA-MB-231 breast cancer cells
Format: cell-based
Conditions: MDA-MB-231 cells; lactate transport
Description: 10 μL of a 30 mM DMSO stock of BCECF-AM ester (Life Technologies) is added and the cells are incubated at 37° C. for 5 min. […] MCT4 activity may be assessed by monitoring the intracellular pH change that accompanies lactate/proton symport, using the pH-sensitive fluorescent dye 2′,7′-bis-(carboxyethyl)-5(6)-carboxyfluorescein (BCECF), in a manner similar to that previously reported for MCT1 and MCT4. […]
Assay Metric: IC50 (nM)

P = CCOc1cccc(-c2cc(COC(C)(C)C(=O)O)nn2Cc2ccccc2OCC)c1
Q = Cn1ncc2ccc(-c3cc(COC(C)(C)C(=O)O)nn3-c3ccccc3Cl)cc21
R = Cn1cc(-c2cc(COC(C)(C)C(=O)O)nn2Cc2ccccc2Cl)cn1
S = CC(C)(OCc1cc(-c2cccc(OC3CC3)c2)n(-c2ccccc2OC(F)F)n1)C(=O)O
Task item: hey, can you rank those molecules up there by IC50? biggest number first please State the ranking by listing the labels in the requested order.
Reply: R, Q, S, P
(R: 890 nM, Q: 101 nM, S: 21.5 nM, P: 9.6 nM)

---

experiment: Metabolic stability in rat liver microsomes (in vitro t1/2); type: in vitro ADME; conditions: rat liver microsomes 0.5 mg/mL, 2 μM compound; read-out: Rat microsome t1/2, min
Assay Metric: half-life at 2 µM (h)

Sample Smiles: CCOc1ccccc1Cn1nc(COC(C)(C)C(=O)O)cc1-c1cccc(OC2CC2)c1
half-life at 2 µM (h): 0.75

A = Cn1ncc2cccc(-n3nc(COC(C)(C)C(=O)O)cc3-c3cccc(OCC(C)(C)C)c3)c21
B = CCn1ncc2ccc(-c3cc(COC(C)(C)C(=O)O)nn3-c3ccccc3Cl)cc21
C = CCn1ncc2ccc(-c3cc(COC(C)(C)C(=O)O)nn3-c3ccccc3N3CCCC3)cc21
D = CC[C@@](C)(OCc1cc(-c2cc(OC)cc(OC)c2)n(-c2ccccc2Cl)n1)C(=O)O
Task item: Put these in order: smallest half-life at 2 µM first, largest last. State the ranking by listing the labels in the requested order.
Reply: A, C, D, B
(A: 1.23 h, C: 1.82 h, D: 5.58 h, B: 12.5 h)

---

target: MCT4 (Homo sapiens (Human), UniProt O15427); test: Assay 3: MCT4-mediated lactate transport in MDA-MB-231 breast cancer cells; format: cell-based; details: MDA-MB-231 cells; lactate transport
Assay Metric: IC50 (nM)

Sample Smiles: CC(C)(OCc1cc(-c2cccc(OCC3COC3)c2)n(-c2ccccc2F)n1)C(=O)O
Target System: MCT4 (Homo sapiens (Human), UniProt O15427)
Endpoint Unit: nM
Endpoint Result: 580

A = CC(C)(OCc1cc(-c2cccc(OC3CC3)c2)n(-c2ccccc2Cl)n1)C(=O)O
B = CC(C)(OCc1cc(-c2cccc(OCC3COC3)c2)n(-c2ccccc2Cl)n1)C(=O)O
Task item: Select the item whose IC50 value is smaller, choosing between A and B . Select an item and report its label.
Reply: A
(A: 20 nM, B: 230 nM)

---

assay: Pharmacokinetic assay in mouse (IV 3 mg/kg, PO 10 mg/kg); assay type: in vivo; conditions: plasma, Male CD1 mouse, volume of distribution, read-out: Mouse Vss
Assay Metric: Vd (L/kg)

Here is how some molecules turned out for Vd.
Molecule: CCOc1ccccc1Cn1nc(CO[C@](C)(CC)C(=O)O)cc1-c1cc(OC)cc(OC)c1 [Example 264]
Vd / L/kg: 1.1
--
Molecule: CCOc1ccccc1Cn1nc(COC(C)(C)C(=O)O)cc1-c1cc(OC)cc(OC)c1 [Example 211]
Vd / L/kg: 1.5
--
Molecule: CCn1ncc2ccc(-c3cc(CO[C@](C)(CC)C(=O)O)nn3-c3ccccc3N3CCC3)cc21 [Example 269]
Vd / L/kg: 1.3
--
Molecule: CCCn1ncc2ccc(-c3cc(CO[C@](C)(CC)C(=O)O)nn3-c3ccccc3N3CCC3)cc21 [Example 267]
Vd / L/kg: 3.9
--
Molecule: CCn1ncc2ccc(-c3cc(CO[C@@](C)(CC)C(=O)O)nn3Cc3ccccc3Cl)cc21 [Example 257]
Vd / L/kg: 2.8

1 = CC(C)(OCc1cc(-c2cccc(OC3CC3)c2)n(-c2ccccc2N2CCC2)n1)C(=O)O [Example 232]
2 = CCn1ncc2ccc(-c3cc(COC(C)(C)C(=O)O)nn3Cc3ccccc3Cl)cc21 [Example 150]
Task item: Lab notebook, comparison: 1 versus 2 , higher Vd goes to which? Select an item and report its label.
Reply: 2

I = CC[C@@](C)(OCc1cc(-c2cccc(OC3CC3)c2)n(-c2ccccc2N2CCC2)n1)C(=O)O [Example 266]
II = CC(C)(OCc1cc(-c2cccc(OC3CCC3)c2)n(-c2ccccc2N2CCC2)n1)C(=O)O [Example 260]
Task item: Select the item whose Vd value is smaller, choosing between I and II . Select an item and report its label.
Reply: II

1 = CC(C)COc1cccc(-c2cc(COC(C)(C)C(=O)O)nn2-c2cccc3cnn(C)c23)c1 [Example 170]
2 = CC(C)(OCc1cc(-c2cccc(OC3CC3)c2)n(-c2ccccc2Cl)n1)C(=O)O [Example 110]
Task item: Lab notebook, comparison: 1 versus 2 , higher Vd goes to which? Select an item and report its label.
Reply: 1
(1: 2 L/kg, 2: 0.81 L/kg)

a = CCn1ncc2ccc(-c3cc(CO[C@](C)(CC)C(=O)O)nn3Cc3ccccc3Cl)cc21 [Example 220]
b = COc1cccc(-c2cc(COC(C)(C)C(=O)O)nn2Cc2ccccc2Cl)c1 [Example 14]
c = Cn1ncc2cccc(-n3nc(COC(C)(C)C(=O)O)cc3-c3cccc(OCC(C)(C)C)c3)c21 [Example 167]
Task item: Output the entries ranked by Vd from maximum down to minimum. State the ranking by listing the labels in the requested order.
Reply: c, a, b

a = CCn1ncc2ccc(-c3cc(COC(C)(C)C(=O)O)nn3-c3ccccc3N3CCCC3)cc21 [Example 229]
b = CCn1ncc2ccc(-c3cc(CO[C@](C)(CC)C(=O)O)nn3-c3ccccc3N3CCCC3)cc21 [Example 268]
Task item: Lab notebook, comparison: a versus b , higher Vd goes to which? Select an item and report its label.
Reply: a
